system: SEM cells; assay: cell viability relative to DMSO control; higher = less cytotoxic; conditions: HPLM + 10% dialyzed FBS; 48 h; 0.00234 µM

COMPOUND: CC(NCCc1ccc(O)cc1)C(O)c1ccc(O)cc1 (centres undefined)
cell viability [%]: 80.5

COMPOUND: CNC(=O)CN1CCC(Oc2cc3c(Nc4cccc(Cl)c4F)ncnc3cc2OC)CC1
cell viability [%]: 110

COMPOUND: COc1cc(CNC(=O)CCCC/C=C/C(C)C)ccc1O
cell viability [%]: 92.6

COMPOUND: CC(=O)[C@]1(O)Cc2c(O)c3c(c(O)c2[C@@H](O[C@H]2C[C@H](N)[C@H](O)[C@H](C)O2)C1)C(=O)c1ccccc1C3=O
cell viability [%]: 127

COMPOUND: COc1cc(N2CCC(N(C)C)CC2)ccc1Nc1ncc(Cl)c(Nc2ccccc2P(C)(C)=O)n1
cell viability [%]: 112

COMPOUND: CC/1=C(/N2[C@H](SC1)[C@H](NC(=O)C(N)C3=CC=CC=C3)C2=O)C(O)=O (some centres undefined)
cell viability [%]: 113

COMPOUND: OC1=CC2=C(C(=C1)O)C(=O)\C(=C(/O2)C3=CC(=C(O)C=C3)O)O
cell viability [%]: 84.2

COMPOUND: C[C@](N)(Cc1ccc(O)c(O)c1)C(=O)O
cell viability [%]: 85.7

COMPOUND: CCOC(=O)Nc1ccc(NCc2ccc(F)cc2)nc1N
cell viability [%]: 104

* * *

tested on: P12-Ichikawa; assay: AUC of viability dose-response curve (% viability x log10 dose units); higher = less sensitive; settings: RPMI 5 mM glucose + 10% FBS; 48 h
Listed here: items and their measured AUC of viability dose-response curve.

MOLECULE: CC/1=C(\O)C(=O)\C=C2/C1=C/C=C3\[C@@]2(C)CC[C@@]4(C)[C@@H]5C[C@@](C)(CC[C@]5(C)CC[C@]34C)C(O)=O
AUC of viability dose-response curve: 360

MOLECULE: COc1ncc(-c2ccc3c(Nc4cc(Oc5cc(F)cc(F)c5)cc(C(=O)O)c4)c([S+](=O)([O-])NC4CC4)cnc3c2)c(OC)n1
AUC of viability dose-response curve: 405

MOLECULE: Cc1noc(-c2ccc(CSCCC(=O)O)cc2)c1NC(=O)OC(C)c1ccccc1Cl (configuration not stated)
AUC of viability dose-response curve: 428

MOLECULE: C[C@H]1COC/2=C1/C(=O)C(=O)C3=C4CCCC(C)(C)C4=CC=C23
AUC of viability dose-response curve: 466

MOLECULE: O=[S+]([O-])(c1cccc2cnccc12)N1CCCNCC1
AUC of viability dose-response curve: 476

MOLECULE: CON(C)C(=O)N1/N=C(S[C@@]1(CCCN)C2=CC=CC=C2)/C3=CC(=CC=C3F)F
AUC of viability dose-response curve: 177

MOLECULE: COC1=CC=C(C=C1O)C/2=C/C(=O)C3=C(O2)C=C(O[C@@H]4O[C@H](CO[C@@H]5O[C@@H](C)[C@H](O)[C@@H](O)[C@H]5O)[C@@H](O)[C@H](O)[C@H]4O)C=C3O
AUC of viability dose-response curve: 463

* * *

In this section, each of the molecules is paired with its reported cell viability.
test system: SEM cells; assay: cell viability relative to DMSO control; higher = less cytotoxic; settings: HPLM + 10% dialyzed FBS; 48 h; 0.0632 µM

MOLECULE: CC(C)(C)[C@H](NC(=O)c1ccc(N)c(Cl)c1)C(=O)N1CCC[C@H]1C(=O)N[C@H](C#N)CC(=O)O
cell viability: 127%

MOLECULE: NC(=O)c1ncn([C@@H]2O[C@H](CO)[C@@H](O)[C@H]2O)c1O
cell viability: 117%

MOLECULE: CN1CCN(CCOc2cc(OC3CCOCC3)c3c(Nc4c(Cl)ccc5c4OCO5)ncnc3c2)CC1
cell viability: 122%

MOLECULE: CO/N=C(\C(=O)N[C@@H]1C(=O)N2C(C(=O)OCOC(=O)C(C)(C)C)=C(/C=C\c3scnc3C)CS[C@H]12)c1csc(N)n1
cell viability: 93.7%

MOLECULE: C[C@@H](O)[C@@H]1NC(=O)[C@H](CCCCN)NC(=O)[C@@H](Cc2c[nH]c3ccccc23)NC(=O)[C@H](Cc2ccccc2)NC(=O)[C@@H](NC(=O)[C@H](N)Cc2ccccc2)CSSC[C@@H](C(=O)N[C@H](CO)[C@@H](C)O)NC1=O
cell viability: 99%

MOLECULE: CN(C)CCN1C(=O)c2cccc3cc(N)cc(c23)C1=O
cell viability: 105%

MOLECULE: C[C@@H]1C[C@H]2[C@@H]3\C=C(C)/C4=C/C5=C(C[C@]4(C)[C@H]3[C@@H](O)C[C@]2(C)[C@@]1(O)C(=O)CO)C=N[N]5C6=CC=CC=C6
cell viability: 101%

MOLECULE: Cc1c(C)c2c(c(C)c1O)CCC(C)(COc1ccc(CC3SC(=O)NC3=O)cc1)O2 (configuration not stated)
cell viability: 124%

MOLECULE: O=C(/C=C/c1ccc(O)cc1)c1ccc(O)cc1O
cell viability: 141%

MOLECULE: OCc1ccc(-c2ccc(-c3ccc(CO)s3)o2)s1
cell viability: 107%

MOLECULE: COc1cc(CNC(=O)CCCC/C=C/C(C)C)ccc1O
cell viability: 101%

MOLECULE: CN(C)C1=C(Br)C=C(C=C1)C\2NC3=C(\C4=C2C(=O)CC(C)(C)C4)C5=CC=CC=C5C=C3 (configuration not stated)
cell viability: 131%

MOLECULE: COc1cc(/C=C/C(=O)O)ccc1O
cell viability: 92.8%

MOLECULE: CN1CCN(CCCN2c3ccccc3Sc3ccc(C(F)(F)F)cc32)CC1
cell viability: 97.3%

MOLECULE: Cc1onc(-c2ccccc2)c1C(=O)N[C@@H]1C(=O)N2[C@@H]1SC(C)(C)[C@@H]2C(=O)[O-].[Na+]
cell viability: 86.5%

MOLECULE: CC/1=C(/N2[C@H](SC1)[C@H](NC(=O)C(N)C3=CC=CC=C3)C2=O)C(O)=O (some centres not stated)
cell viability: 108%

MOLECULE: CNC(=O)C1=CC=C(C)C(=C1)N2C(=C/C(=C(/Br)C2=O)OCC3=C(F)C=C(F)C=C3)\C
cell viability: 126%
